# protein stability index annotations
B1: MMP1 (parent)
chain: FHGTRQYKFDPKTKRILTLQKANS

variants of: B1; assay: protein stability index of a GFP-peptide fusion (GPS, HEK-293T) (PSI 1-6); higher = more stable; conditions: c terminus: a fixed tail appended;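 also: lentivirally expressed fusions sorted by FACS into six bins by GFP to DsRed ratio, PSI derived from sequencing read proportions per bin multiplied by bin number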
// response body must contain only the number

Variant Descriptor | protein stability index
K8Y | 2.22
Q20A | 2.46
H2Q | 2.19

Noted for A22H : its protein stability index reads 2.49

Noted for L17Q : its protein stability index reads 2.19

Noted for T13V : its protein stability index reads 1.6

Noted for L19R : its protein stability index reads 1.44
